ASSAY SYSTEM: δ-opioid receptor (DOR) (Rattus norvegicus, UniProt P33533)
Construct: Frozen whole rat brains excluding cerebellum were thawed on ice
Sequence (P33533 whole entry): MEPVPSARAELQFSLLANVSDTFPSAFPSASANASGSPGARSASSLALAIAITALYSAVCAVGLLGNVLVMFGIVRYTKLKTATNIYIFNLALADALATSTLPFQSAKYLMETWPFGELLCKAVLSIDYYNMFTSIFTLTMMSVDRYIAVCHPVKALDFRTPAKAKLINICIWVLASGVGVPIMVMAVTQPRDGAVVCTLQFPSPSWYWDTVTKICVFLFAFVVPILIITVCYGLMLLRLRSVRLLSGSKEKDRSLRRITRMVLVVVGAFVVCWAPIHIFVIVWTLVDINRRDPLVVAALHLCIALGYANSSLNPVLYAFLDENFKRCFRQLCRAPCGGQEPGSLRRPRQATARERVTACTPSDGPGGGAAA
TEST NAME: Opioid receptor binding, δ sites ([3H]DADLE), rat brain homogenate
log10(Ki) reference
ENDPOINT: log10(Ki) (log10 of the value in nM)

>  <COMPOUND>
O=C1CCC2C3Cc4ccc(O)c5c4[C@@]2(CCN3CCc2ccc(F)cc2)[C@H]1O5 (stereo partly drawn)

>  <ASSAY SYSTEM>
δ-opioid receptor (DOR) (Rattus norvegicus, UniProt P33533)

>  <RECORDED RESULT>
1.13

$$$$
>  <COMPOUND>
O=C1CCC2C3Cc4ccc(O)c5c4[C@@]2(CCN3CC2Cc3ccccc3C2)[C@H]1O5 (stereo partly drawn)

>  <ASSAY SYSTEM>
δ-opioid receptor (DOR) (Rattus norvegicus, UniProt P33533)

>  <RECORDED RESULT>
2.93

$$$$
>  <COMPOUND>
N#CCN1CC[C@]23c4c5ccc(O)c4O[C@H]2C(=O)CCC3C1C5 (stereo partly drawn)

>  <ASSAY SYSTEM>
δ-opioid receptor (DOR) (Rattus norvegicus, UniProt P33533)

>  <RECORDED RESULT>
2.15

$$$$
>  <COMPOUND>
O=C1CCC2C3Cc4ccc(O)c5c4[C@@]2(CCN3CCc2ccc(Cl)cc2)[C@H]1O5 (stereo partly drawn)

>  <ASSAY SYSTEM>
δ-opioid receptor (DOR) (Rattus norvegicus, UniProt P33533)

>  <RECORDED RESULT>
0.90

$$$$
>  <COMPOUND>
O=C1CCC2C3Cc4ccc(O)c5c4[C@@]2(CCN3CCc2ccc(C(F)(F)F)cc2)[C@H]1O5 (stereo partly drawn)

>  <ASSAY SYSTEM>
δ-opioid receptor (DOR) (Rattus norvegicus, UniProt P33533)

>  <RECORDED RESULT>
1.21

$$$$
>  <COMPOUND>
O=C1CCC2C3Cc4ccc(O)c5c4[C@@]2(CCN3CCc2cccc(F)c2)[C@H]1O5 (stereo partly drawn)

>  <ASSAY SYSTEM>
δ-opioid receptor (DOR) (Rattus norvegicus, UniProt P33533)

>  <RECORDED RESULT>
0.65

$$$$
>  <COMPOUND>
Cc1ccc(CCN2CC[C@]34c5c6ccc(O)c5O[C@H]3C(=O)CCC4C2C6)cc1 (stereo partly drawn)

>  <ASSAY SYSTEM>
δ-opioid receptor (DOR) (Rattus norvegicus, UniProt P33533)

>  <RECORDED RESULT>
0.80

$$$$
>  <COMPOUND>
O=C1CCC2C3Cc4ccc(O)c5c4C2(CCN3CCc2cccc([N+](=O)[O-])c2)C1O5 (stereo not drawn)

>  <ASSAY SYSTEM>
δ-opioid receptor (DOR) (Rattus norvegicus, UniProt P33533)

>  <RECORDED RESULT>
1.97

$$$$
>  <COMPOUND>
O=C1CCC2C3Cc4ccc(O)c5c4[C@@]2(CCN3CCc2ccccc2F)[C@H]1O5 (stereo partly drawn)

>  <ASSAY SYSTEM>
δ-opioid receptor (DOR) (Rattus norvegicus, UniProt P33533)

>  <RECORDED RESULT>
0.55

$$$$
>  <COMPOUND>
O=C1CCC2C3Cc4ccc(O)c5c4[C@@]2(CCN3CCc2ccc([N+](=O)[O-])cc2)[C@H]1O5 (stereo partly drawn)

>  <ASSAY SYSTEM>
δ-opioid receptor (DOR) (Rattus norvegicus, UniProt P33533)

>  <RECORDED RESULT>
0.78

$$$$
>  <COMPOUND>
COc1ccc(CCN2CC[C@]34c5c6ccc(O)c5O[C@H]3C(=O)CCC4C2C6)cc1 (stereo partly drawn)

>  <ASSAY SYSTEM>
δ-opioid receptor (DOR) (Rattus norvegicus, UniProt P33533)

>  <RECORDED RESULT>
0.73

$$$$
>  <COMPOUND>
N#CCCCN1CCC23c4c5ccc(O)c4OC2C(=O)CCC3C1C5 (stereo not drawn)

>  <ASSAY SYSTEM>
δ-opioid receptor (DOR) (Rattus norvegicus, UniProt P33533)

>  <RECORDED RESULT>
1.86

$$$$

----------
ASSAY SYSTEM: human δ-receptor (OPRMD1) (Homo sapiens, UniProt P41143)
Sequence (P41143 whole entry): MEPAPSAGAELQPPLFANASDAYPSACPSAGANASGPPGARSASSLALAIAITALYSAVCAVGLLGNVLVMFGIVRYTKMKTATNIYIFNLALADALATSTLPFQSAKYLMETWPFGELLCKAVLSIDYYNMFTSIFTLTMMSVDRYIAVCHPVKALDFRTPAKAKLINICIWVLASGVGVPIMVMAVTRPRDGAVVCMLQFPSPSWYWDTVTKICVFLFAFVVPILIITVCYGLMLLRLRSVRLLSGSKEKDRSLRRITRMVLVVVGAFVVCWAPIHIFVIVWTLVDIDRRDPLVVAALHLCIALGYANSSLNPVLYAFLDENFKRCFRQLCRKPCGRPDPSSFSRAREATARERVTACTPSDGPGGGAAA
TEST NAME: cell-based
STATED CONDITIONS: DOR cAMP Agonist Potency ± SEM
# EC50 binned as low end = under 1 nM, middle = from 1 nM up to 20 nM, high end = 20 nM and over

>  <COMPOUND>
O=C1CCC2C3Cc4ccc(O)c5c4[C@@]2(CCN3CC2Cc3ccccc3C2)[C@H]1O5 (some centres unmarked) [Compound 1d]

>  <ASSAY SYSTEM>
human δ-receptor (OPRMD1) (Homo sapiens, UniProt P41143)

>  <LABEL VALUE>
high end

$$$$
>  <COMPOUND>
O=C1CCC2C3Cc4ccc(O)c5c4[C@@]2(CCN3CCc2cccc(F)c2)[C@H]1O5 (some centres unmarked) [Compound 2f]

>  <ASSAY SYSTEM>
human δ-receptor (OPRMD1) (Homo sapiens, UniProt P41143)

>  <LABEL VALUE>
middle

$$$$
>  <COMPOUND>
O=C(O)C(=O)O.O=C1CCC2[C@H]3Cc4ccc(O)c5c4[C@@]2(CCN3CCc2ccc(Br)cc2)[C@H]1O5 (some centres unmarked) [Compound 2j]

>  <ASSAY SYSTEM>
human δ-receptor (OPRMD1) (Homo sapiens, UniProt P41143)

>  <LABEL VALUE>
low end

$$$$
>  <COMPOUND>
O=C1CCC2C3Cc4ccc(O)c5c4[C@@]2(CCN3CCc2ccc(Cl)cc2)[C@H]1O5 (some centres unmarked) [Compound 2i]

>  <ASSAY SYSTEM>
human δ-receptor (OPRMD1) (Homo sapiens, UniProt P41143)

>  <LABEL VALUE>
low end

$$$$
>  <COMPOUND>
N#CCN1CC[C@]23c4c5ccc(O)c4O[C@H]2C(=O)CCC3C1C5 (some centres unmarked) [Compound 1a]

>  <ASSAY SYSTEM>
human δ-receptor (OPRMD1) (Homo sapiens, UniProt P41143)

>  <LABEL VALUE>
high end

$$$$
>  <COMPOUND>
O=C1CCC2C3Cc4ccc(O)c5c4[C@@]2(CCN3CCc2ccc(C(F)(F)F)cc2)[C@H]1O5 (some centres unmarked) [Compound 2h]

>  <ASSAY SYSTEM>
human δ-receptor (OPRMD1) (Homo sapiens, UniProt P41143)

>  <LABEL VALUE>
middle

$$$$
>  <COMPOUND>
O=C1CCC2C3Cc4ccc(O)c5c4[C@@]2(CCN3CCc2ccc(F)cc2)[C@H]1O5 (some centres unmarked) [Compound 2e]

>  <ASSAY SYSTEM>
human δ-receptor (OPRMD1) (Homo sapiens, UniProt P41143)

>  <LABEL VALUE>
middle

$$$$
>  <COMPOUND>
O=C1CCC2C3Cc4ccc(O)c5c4[C@@]2(CCN3CC=Cc2ccccc2)[C@H]1O5 (some centres unmarked) [Compound 1c]

>  <ASSAY SYSTEM>
human δ-receptor (OPRMD1) (Homo sapiens, UniProt P41143)

>  <LABEL VALUE>
high end

$$$$
>  <COMPOUND>
O=C1CCC2C3Cc4ccc(O)c5c4[C@@]2(CCN3CCc2c(Cl)cccc2Cl)[C@H]1O5 (some centres unmarked) [Compound 2k]

>  <ASSAY SYSTEM>
human δ-receptor (OPRMD1) (Homo sapiens, UniProt P41143)

>  <LABEL VALUE>
high end

$$$$
>  <COMPOUND>
O=C1CCC2C3Cc4ccc(O)c5c4C2(CCN3CCc2cccc([N+](=O)[O-])c2)C1O5 (centres unmarked) [Compound 2b]

>  <ASSAY SYSTEM>
human δ-receptor (OPRMD1) (Homo sapiens, UniProt P41143)

>  <LABEL VALUE>
high end

$$$$
>  <COMPOUND>
O=C1CCC2C3Cc4ccc(O)c5c4[C@@]2(CCN3CCc2ccccc2F)[C@H]1O5 (some centres unmarked) [Compound 2g]

>  <ASSAY SYSTEM>
human δ-receptor (OPRMD1) (Homo sapiens, UniProt P41143)

>  <LABEL VALUE>
low end

$$$$
>  <COMPOUND>
O=C1CCC2C3Cc4ccc(O)c5c4[C@@]2(CCN3CCc2ccc([N+](=O)[O-])cc2)[C@H]1O5 (some centres unmarked) [Compound 2a]

>  <ASSAY SYSTEM>
human δ-receptor (OPRMD1) (Homo sapiens, UniProt P41143)

>  <LABEL VALUE>
low end

$$$$
>  <COMPOUND>
O=C1CCC2C3Cc4ccc(O)c5c4C2(CCN3CCc2ccccc2)C1O5 (centres unmarked) [Compound S11, N-Phenethylnorhydromorphone]

>  <ASSAY SYSTEM>
human δ-receptor (OPRMD1) (Homo sapiens, UniProt P41143)

>  <LABEL VALUE>
middle

$$$$
